Measured log10(IC50) values are reported for all entries that follow.
# experimental.system: ALK2 (Homo sapiens)
# Sequence (Q04771 21-509): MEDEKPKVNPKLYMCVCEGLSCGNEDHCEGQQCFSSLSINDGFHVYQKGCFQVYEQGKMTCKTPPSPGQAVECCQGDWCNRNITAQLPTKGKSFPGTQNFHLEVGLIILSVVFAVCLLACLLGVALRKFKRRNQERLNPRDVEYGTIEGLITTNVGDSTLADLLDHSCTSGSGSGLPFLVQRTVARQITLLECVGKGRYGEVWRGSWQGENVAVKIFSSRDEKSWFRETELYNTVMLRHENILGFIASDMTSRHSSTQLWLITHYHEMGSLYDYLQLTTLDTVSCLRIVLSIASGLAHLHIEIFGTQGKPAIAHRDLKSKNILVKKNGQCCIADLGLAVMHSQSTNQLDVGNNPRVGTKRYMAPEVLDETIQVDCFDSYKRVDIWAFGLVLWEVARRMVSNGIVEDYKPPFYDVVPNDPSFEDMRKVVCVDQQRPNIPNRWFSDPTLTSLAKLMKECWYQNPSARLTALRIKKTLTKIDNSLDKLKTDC
# test.summary: TR-FRET enzymatic ALK kinase assay, ALK2
// do not treat as linear: log10 of IC50, unit µM

>  <compound>
CC(O)c1cccc(-c2cnn3cc(-c4ccc(CCN5CCNCC5)cc4)cnc23)c1 (stereo not shown)

>  <measurement.kind>
log10(IC50)

>  <observed.measurement>
-0.77

$$$$

(Q) Item under review: `C[C@@H]1CNC[C@H](C)N1c1ccc(-c2cnc3c(-c4ccc(Cl)c5ccccc45)cnn3c2)cc1` . Reported log10(IC50)?
(A) -0.89

(Q) Item under review: `CS(=O)(=O)c1cccc(-c2cnn3cc(-c4ccc(C(F)(F)CN5CCCC5)cc4)cnc23)c1` . Reported log10(IC50)?
(A) -0.68

(Q) Item under review: `CN(C)C(=O)c1cccc2c(-c3cnn4cc(-c5ccc(N6CCNCC6)cc5)cnc34)cccc12` . Reported log10(IC50)?
(A) 0.82

(Q) Item under review: `CC(C)(CN1CCCCC1)Oc1ccc(-c2cnc3c(-c4cccc5c(C(N)=O)cccc45)cnn3c2)cc1` . Reported log10(IC50)?
(A) -2.30

(Q) Item under review: CC(O)c1cccc(-c2cnn3cc(-c4ccc(OC5(CN6CCC(O)CC6)CC5)cc4)cnc23)c1 (stereo not shown) . Reported log10(IC50)?
(A) -1.37

(Q) Item under review: `CS(=O)(=O)c1cccc(-c2cnn3cc(-c4ccc(C5(N)CC5)cc4)cnc23)c1` . Reported log10(IC50)?
(A) -1.36
